B1: library; numbered along this chain (parent)
chain: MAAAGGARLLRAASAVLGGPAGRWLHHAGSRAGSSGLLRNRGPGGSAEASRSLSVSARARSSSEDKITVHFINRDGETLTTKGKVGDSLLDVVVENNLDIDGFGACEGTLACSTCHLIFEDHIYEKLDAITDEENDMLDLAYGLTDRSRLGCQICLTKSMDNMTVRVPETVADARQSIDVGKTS

# Variants of: B1
# assay: scaled log2 fold change in cell abundance, elesclomol vs control (0 = silent mean, 1 = nonsense mean) (scaled log2 ratio); higher = higher viability under elesclomol (loss of FDX1 cuproptosis function);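 note: variant abundance is its share of total variant reads in each endpoint sample, from next-generation sequencing of the integrated ORF PCR-amplified out of genomic DNA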
# test_parameters: with HEK293T FDX1 KO; elesclomol 40 nM; glucose 10 mM; 11 days
Recorded scaled log2 fold change determines the group label, using class A: < -0.3; class B: ≥ -0.3 and < 0.2; class C: ≥ 0.2

I130R | class B
I178S | class B
L90M | class B

Each variant maps to one class by scaled log2 fold change. Which class for "R166E" ?
class A

Each variant maps to one class by scaled log2 fold change. Which class for "I72V" ?
class A

Each variant maps to one class by scaled log2 fold change. Which class for "G18M" ?
class B

Each variant maps to one class by scaled log2 fold change. Which class for "L98D" ?
class C

Each variant maps to one class by scaled log2 fold change. Which class for "D65V" ?
class B

Each variant maps to one class by scaled log2 fold change. Which class for "T145K" ?
class A

Each variant maps to one class by scaled log2 fold change. Which class for "Y142C" ?
class A

Each variant maps to one class by scaled log2 fold change. Which class for "A57T" ?
class A

Each variant maps to one class by scaled log2 fold change. Which class for "R41K" ?
class B
